molecular target: BCAT2 (Homo sapiens, UniProt O15382); test: BCAT2 cell inhibition using engineered A549 cells (MUT KO, BCAT1 KO; 13C6-KMV formation by LC-MS/MS); format: cell-based; design: expressed endogenous BCAT2; endogenous in cells; host or cells: A549 cells, MUT knockout and BCAT1 knockout
Sequence (O15382 28-392): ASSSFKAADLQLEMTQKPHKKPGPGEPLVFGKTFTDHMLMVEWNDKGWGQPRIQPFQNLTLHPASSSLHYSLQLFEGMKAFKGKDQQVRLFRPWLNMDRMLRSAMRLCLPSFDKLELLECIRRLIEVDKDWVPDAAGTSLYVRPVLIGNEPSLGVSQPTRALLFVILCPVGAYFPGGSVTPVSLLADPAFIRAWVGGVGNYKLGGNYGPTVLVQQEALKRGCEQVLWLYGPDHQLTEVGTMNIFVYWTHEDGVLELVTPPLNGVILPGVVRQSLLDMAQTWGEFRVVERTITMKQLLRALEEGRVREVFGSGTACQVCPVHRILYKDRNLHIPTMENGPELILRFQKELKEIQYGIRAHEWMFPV
Measurement Kind: IC50

# annotated cases, reported IC50 shown
{"Compound Structure": "CC(C)Cc1nc2cnc(-n3nccn3)cc2n1[C@@H]1CCC[C@H](NC(=O)c2cc(Cl)ccc2OCCO)C1", "IC50": "500 to 1000 nM"}
{"Compound Structure": "O=C(N[C@H]1CCC[C@@H](n2c(-c3ccccc3OC(F)F)nc3cnc(-c4nc[nH]n4)cc32)C1)c1cc(Cl)ccc1OCCO", "IC50": "< 100 nM"}
{"Compound Structure": "COCCOc1ccc(Cl)cc1C(=O)N[C@H]1CCC[C@@H](n2c(-c3ccccc3F)nc3cnc(-c4nc[nH]n4)cc32)C1", "IC50": "< 100 nM"}
{"Compound Structure": "CN1C[C@H](NC(=O)c2cc(Cl)ccc2OCCO)C[C@H](n2c(-c3ccccc3F)nc3cnc(-c4nc[nH]n4)cc32)C1", "IC50": "100 to 500 nM"}

Per the records, this molecule ( N#Cc1ccc(F)c(C(=O)N[C@H]2CCC[C@@H](n3c(-c4ccccc4F)nc4cnc(-c5nc[nH]n5)cc43)C2)c1 ) has IC50 equal to 100 to 500 nM

Per the records, this molecule ( COc1ccc(Cl)cc1C(=O)N[C@H]1CCC[C@@H](n2c(-c3ccccc3F)nc3cnc(-c4nc[nH]n4)cc32)[C@@H]1O ) has IC50 equal to < 100 nM

Values compiled from patent US20260334439A1.
